# System: FM-MEL-6
# assayMethodText: drug sensitivity score (DSS) (DSS (unitless)); higher = more sensitive
# appliedConditions: 72 h; culture: 2D

- cpdSmiles: "O=C(Nc1ccc2[nH]nc(-c3ccncc3)c2c1)[C@@H]1CCN(CC(=O)N2CCN(c3ccc(-c4ncccn4)cc3)CC2)C1"
  drug sensitivity score: 11.2
- cpdSmiles: "COc1cc(OC)c(/C=C/S(=O)(=O)Cc2ccc(OC)c(NCC(=O)O)c2)c(OC)c1"
  drug sensitivity score: 8.6
- cpdSmiles: "Cc1cn(-c2cc(NC(=O)c3ccc(C)c(Nc4nccc(-c5cccnc5)n4)c3)cc(C(F)(F)F)c2)cn1"
  drug sensitivity score: 0
- cpdSmiles: "CC(C)NC(=O)COc1cccc(-c2nc(Nc3ccc4[nH]ncc4c3)c3ccccc3n2)c1"
  drug sensitivity score: 0
- cpdSmiles: "COc1ccc(-c2ccc3c(N4CCOC[C@@H]4C)nc(N4CCOC[C@@H]4C)nc3n2)cc1CO"
  drug sensitivity score: 11.3
- cpdSmiles: "CC(=O)Nc1cccc(-n2c(=O)n(C3CC3)c(=O)c3c(Nc4ccc(I)cc4F)n(C)c(=O)c(C)c32)c1"
  drug sensitivity score: 17.1
- cpdSmiles: "C=CCn1c(=O)c2cnc(Nc3ccc(N4CCN(C)CC4)cc3)nc2n1-c1cccc(C(C)(C)O)n1"
  drug sensitivity score: 1.7
- cpdSmiles: "COc1cccc(OCCCN)c1-c1cc(Nc2cnc(C#N)cn2)n[nH]1"
  drug sensitivity score: 6.4
